- ASSAY_INFO: Drug uptake in Sprague-Dawley rat brain at 10 mg/kg, ip measured after 4 hrs
- Assay type: ADME, organism-based
- CONDITION_LABEL: read-out: Drug uptake
MEASUREMENT_TYPE: concentration at 4 h (nM)

compound_smiles=C#Cc1ccc2c(c1)C(c1ccccn1)=NCc1c(-c3cnco3)ncn1-2 measurement_type="concentration at 4 h" measured_value=2050

====

// values below are reported Stability
- System: Liver
- ASSAY_INFO: Metabolic stability in human liver microsomes assessed as compound remaining at 4 uM measured after 30 mins in presence of NADPH by LC-MS/MS analysis
- Type: ADME, microsome
- CONDITION_LABEL: 0.5 h
MEASUREMENT_TYPE: Stability (%)

compound_smiles=C#Cc1ccc2c(c1)C(c1ccccn1)=NCc1c(-c3cnco3)ncn1-2 measurement_target=Liver measured_value=91
compound_smiles=C#Cc1ccc2c(c1)C(c1ccccn1)=NCc1c(-c3nc(C)no3)ncn1-2 measurement_target=Liver measured_value=81
compound_smiles=C#Cc1ccc2c(c1)C(c1ccccc1F)=NCc1c(-c3cnco3)ncn1-2 measurement_target=Liver measured_value=78
compound_smiles=C#Cc1ccc2c(c1)C(c1ccccc1)=NCc1c(C(=O)OCC)ncn1-2 measurement_target=Liver measured_value=35
compound_smiles=[2H]C([2H])(C)OC(=O)c1ncn2c1CN=C(c1ccccn1)c1cc(C#C)ccc1-2 measurement_target=Liver measured_value=95

====

- MEASUREMENT_TARGET: GABA-A receptor; alpha-3/beta-3/gamma-2 (Homo sapiens, UniProt P18507+P28472+P34903)
- Sequence (P18507 whole entry): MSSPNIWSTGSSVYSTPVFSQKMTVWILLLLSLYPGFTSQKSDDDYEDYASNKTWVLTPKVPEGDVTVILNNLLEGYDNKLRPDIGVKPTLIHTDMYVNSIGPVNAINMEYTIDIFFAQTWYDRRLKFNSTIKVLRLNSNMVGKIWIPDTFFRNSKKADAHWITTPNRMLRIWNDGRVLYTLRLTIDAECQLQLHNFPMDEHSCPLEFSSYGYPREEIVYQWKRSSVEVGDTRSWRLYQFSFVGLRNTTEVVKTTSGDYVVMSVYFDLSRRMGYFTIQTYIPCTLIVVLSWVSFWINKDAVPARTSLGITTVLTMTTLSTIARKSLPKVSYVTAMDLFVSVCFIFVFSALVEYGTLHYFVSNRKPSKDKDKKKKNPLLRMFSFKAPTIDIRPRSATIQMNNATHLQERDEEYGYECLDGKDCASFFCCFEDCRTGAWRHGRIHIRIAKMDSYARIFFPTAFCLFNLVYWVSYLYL
- Sequence (P28472 whole entry): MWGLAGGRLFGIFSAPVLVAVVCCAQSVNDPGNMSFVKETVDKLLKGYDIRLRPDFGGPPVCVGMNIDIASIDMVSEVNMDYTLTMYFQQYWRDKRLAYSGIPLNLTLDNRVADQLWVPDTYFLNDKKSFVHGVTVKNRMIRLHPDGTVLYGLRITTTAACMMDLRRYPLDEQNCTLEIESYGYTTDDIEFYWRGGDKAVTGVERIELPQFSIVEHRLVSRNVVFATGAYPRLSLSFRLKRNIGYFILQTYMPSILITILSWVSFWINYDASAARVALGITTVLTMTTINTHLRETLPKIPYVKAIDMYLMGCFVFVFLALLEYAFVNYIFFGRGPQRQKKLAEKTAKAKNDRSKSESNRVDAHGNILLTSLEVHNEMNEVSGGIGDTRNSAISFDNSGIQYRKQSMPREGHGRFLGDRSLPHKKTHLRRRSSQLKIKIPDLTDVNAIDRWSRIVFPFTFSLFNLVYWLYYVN
- Sequence (P34903 whole entry): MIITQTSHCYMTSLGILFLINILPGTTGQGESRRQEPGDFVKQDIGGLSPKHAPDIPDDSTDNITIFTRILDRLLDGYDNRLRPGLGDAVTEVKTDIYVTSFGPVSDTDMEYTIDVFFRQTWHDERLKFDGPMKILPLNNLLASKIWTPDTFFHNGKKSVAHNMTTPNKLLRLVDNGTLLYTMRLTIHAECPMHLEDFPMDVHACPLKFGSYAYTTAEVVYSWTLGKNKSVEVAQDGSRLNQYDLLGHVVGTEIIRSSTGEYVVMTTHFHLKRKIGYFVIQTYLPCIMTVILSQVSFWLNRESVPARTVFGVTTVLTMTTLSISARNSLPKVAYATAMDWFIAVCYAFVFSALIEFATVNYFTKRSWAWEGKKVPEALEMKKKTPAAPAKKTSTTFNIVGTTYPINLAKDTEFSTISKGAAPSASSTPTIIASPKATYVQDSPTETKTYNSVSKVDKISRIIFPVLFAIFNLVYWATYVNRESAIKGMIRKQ
- ASSAY_INFO: Binding affinity to human GABAA alpha3beta3gamma2 receptor expressed in HEK293 cells assessed as GABA-induced membrane potential change preincubated for 3 mins followed by addition of GABA measured after 3 mins by FLIPR assay
- Assay type: cell-based
pEC50: −log10 of the molar value.
MEASUREMENT_TYPE: pEC50

compound_smiles=C#Cc1ccc2c(c1)C(c1ccccn1)=NCc1c(-c3nc(CC)no3)ncn1-2 measurement_type=pEC50 measured_value=5.52
compound_smiles=C#Cc1ccc2c(c1)C(c1ccccn1)=NCc1c(-c3nc(C)no3)ncn1-2 measurement_type=pEC50 measured_value=5.29
compound_smiles=C#Cc1ccc2c(c1)C(c1ccccc1)=NCc1c(-c3cnco3)ncn1-2 measurement_type=pEC50 measured_value=6.49
compound_smiles=C#Cc1ccc2c(c1)C(c1ccccc1F)=NCc1c(-c3cnco3)ncn1-2 measurement_type=pEC50 measured_value=7.96
compound_smiles=C#Cc1ccc2c(c1)C(c1ccccn1)=NCc1c(C(=O)O)ncn1-2 measurement_type=pEC50 measured_value=6.33
compound_smiles=C#Cc1ccc2c(c1)C(c1ccccn1)=NCc1c(-c3cnco3)ncn1-2 measurement_type=pEC50 measured_value=6.03
compound_smiles=C#Cc1ccc2c(c1)C(c1ccccc1F)=NCc1c(C(=O)OCC)ncn1-2 measurement_type=pEC50 measured_value=7.54

====

The compounds listed here are annotated with their concentration at 2 h.
- ASSAY_INFO: Drug uptake in Sprague-Dawley rat brain at 10 mg/kg, po measured after 120 mins by LC-MS/MS analysis
- Type: ADME, organism-based
- CONDITION_LABEL: read-out: Drug uptake
MEASUREMENT_TYPE: concentration at 2 h

compound_smiles=C#Cc1ccc2c(c1)C(c1ccccn1)=NCc1c(C(=O)O)ncn1-2 measurement_type="concentration at 2 h" measured_value="< 12.2 nM"
compound_smiles=[2H]C([2H])(C)OC(=O)c1ncn2c1CN=C(c1ccccn1)c1cc(C#C)ccc1-2 measurement_type="concentration at 2 h" measured_value="< 12.2 nM"
compound_smiles=C#Cc1ccc2c(c1)C(c1ccccn1)=NCc1c(C(=O)OCC)ncn1-2 measurement_type="concentration at 2 h" measured_value="< 12.2 nM"

====

- Test system: Liver
- ASSAY_INFO: Metabolic stability in rat liver microsomes assessed as compound remaining at 4 uM measured after 30 mins in presence of NADPH by LC-MS/MS analysis
- Assay type: ADME, microsome
- CONDITION_LABEL: 0.5 h
Just a reminder that ties go to not fulfilled: only Stability strictly below 70% counts as fulfilled.

compound_smiles=[2H]C([2H])(C)OC(=O)c1ncn2c1CN=C(c1ccccn1)c1cc(C#C)ccc1-2 discrete_label="not fulfilled"
compound_smiles=C#Cc1ccc2c(c1)C(c1ccccn1)=NCc1c(-c3nc(CC)no3)ncn1-2 discrete_label="not fulfilled"
compound_smiles=C#Cc1ccc2c(c1)C(c1ccccn1)=NCc1c(C(=O)OCC)ncn1-2 discrete_label=fulfilled
compound_smiles=C#Cc1ccc2c(c1)C(c1ccccn1)=NCc1c(-c3cnco3)ncn1-2 discrete_label="not fulfilled"
compound_smiles=C#Cc1ccc2c(c1)C(c1ccccc1)=NCc1c(C(=O)OCC)ncn1-2 discrete_label=fulfilled
compound_smiles=C#Cc1ccc2c(c1)C(c1ccccc1F)=NCc1c(C(=O)OCC)ncn1-2 discrete_label=fulfilled
compound_smiles=C#Cc1ccc2c(c1)C(c1ccccn1)=NCc1c(C(=O)O)ncn1-2 discrete_label="not fulfilled"
compound_smiles=C#Cc1ccc2c(c1)C(c1ccccn1)=NCc1c(-c3nc(C)no3)ncn1-2 discrete_label="not fulfilled"

====

- ASSAY_INFO: AUC in femoral artery/vein cannulated Sprague-Dawley rat at 10 mg/kg, ip administered […] as single dose by LC-MS/MS analysis
- Assay type: ADME, organism-based
- CONDITION_LABEL: in vivo
MEASUREMENT_TYPE: AUC

compound_smiles=C#Cc1ccc2c(c1)C(c1ccccn1)=NCc1c(-c3cnco3)ncn1-2 measurement_type=AUC measured_value="16.5 µM·h"
